System: CCRF-CEM
Assay: Inhibitory activity was tested against CEM cells
Format: functional, cell-based
Settings: Homo sapiens
Measurement kind: IC50 (µM)

[P] O=C1/C(=C/c2ccc(Br)cc2)CCCc2ccccc21
[Q] O=C1CCCCC/C1=C\c1ccc([N+](=O)[O-])cc1
Between the entries labeled P and Q , whose measured IC50 is lower? The response must carry the label of the picked entry.
P

[1] COc1ccc(/C=C2\Cc3ccccc3C2=O)cc1
[2] O=C1/C(=C/c2cccc(F)c2)CCCc2ccccc21
[3] O=C1/C(=C/c2ccc(F)cc2)CCCc2ccccc21
Ascending sort, IC50. // format: requested-order list of labels
2, 3, 1
(2: 11.2 µM, 3: 20 µM, 1: 32.6 µM)

[P] COc1cccc(/C=C2\CCCc3ccccc3C2=O)c1
[Q] O=C1CCCCC/C1=C\c1ccc(Br)cc1
[R] O=C1CCCCC/C1=C\c1ccc(F)cc1
[S] COc1cccc(/C=C2\CCCCCC2=O)c1
[T] O=C1/C(=C/c2ccc(Br)cc2)Cc2ccccc21
Ascending sort, IC50. // format: requested-order list of labels
P, Q, S, R, T

[A] O=C1/C(=C/c2cccc(Cl)c2)CCc2ccccc21
[B] O=C1CCCCC/C1=C\c1cccc([N+](=O)[O-])c1
Determine, for A and B , which has the greater value of IC50. The response must carry the label of the picked entry.
B
(B: 30.1 µM, A: 9.19 µM)

[A] O=C1/C(=C/c2cccc(Cl)c2)CCCc2ccccc21
[B] O=C1CCCCC/C1=C\c1cccc(F)c1
[C] O=C1CCCCC/C1=C\c1cccc(Cl)c1
Order the 3 molecules from highest to lowest IC50. // format: requested-order list of labels
B, C, A

[1] Cc1cccc(/C=C2\CCCCCC2=O)c1
[2] Cc1ccc(/C=C2\CCc3ccccc3C2=O)cc1
[3] O=C1/C(=C/c2cccc(F)c2)CCc2ccccc21
Ascending sort, IC50. // format: requested-order list of labels
3, 1, 2

[A] O=C1/C(=C/c2ccc(F)cc2)CCc2ccccc21
[B] O=C1/C(=C/c2cccc([N+](=O)[O-])c2)CCCc2ccccc21
[C] Cc1cccc(/C=C2\CCCc3ccccc3C2=O)c1
Order the 3 molecules from highest to lowest IC50. // format: requested-order list of labels
A, C, B

[A] O=C1/C(=C/c2cccc(Br)c2)CCc2ccccc21
[B] Cc1cccc(/C=C2\Cc3ccccc3C2=O)c1
Determine, for A and B , which has the greater value of IC50. The response must carry the label of the picked entry.
B

---

Tested on: P388
Assay: Average potency against P388 cells
Type: functional, Mus musculus
Measurement kind: AP (µM)
Please state the figure in µM; there is no need to write the unit.

# Smiles text, AP, µM
rows = [
    ("O=C1/C(=C/c2cccc(F)c2)CCc2ccccc21", 20.9),
    ("O=C1/C(=C/c2ccc([N+](=O)[O-])cc2)CCc2ccccc21", 20.9),
    ("O=C1/C(=C/c2cccc(Br)c2)Cc2ccccc21", 42.9),
    ("O=C1/C(=C/c2cccc(F)c2)Cc2ccccc21", 42.9),
    ("O=C1/C(=C/c2cccc(Cl)c2)CCCc2ccccc21", 11.2),
]

Please report the measured AP for O=C1/C(=C/c2cccc(Cl)c2)CCc2ccccc21
20.9

Please report the measured AP for O=C1/C(=C/c2cccc(Cl)c2)Cc2ccccc21
42.9

Please report the measured AP for COc1ccc(/C=C2\CCc3ccccc3C2=O)cc1
20.9

---

Reported AP values follow for various compounds
System: P388
Assay: Average potency against P388 cells
Format: functional, Mus musculus
Please state the figure in µM; there is no need to write the unit.

Worked cases, answers included:
# Smiles text, Target or test system, Reported
data = [
    ("Cc1ccc(/C=C2\\CCc3ccccc3C2=O)cc1", "P388", 20.9),
    ("O=C1/C(=C/c2ccc(F)cc2)Cc2ccccc21", "P388", 42.9),
    ("O=C1CCCCC/C1=C\\c1cccc(Br)c1", "P388", 34.5),
]

Write down measured AP (P388) for this compound. O=C1/C(=C/c2ccccc2)CCCc2ccccc21
11.2

Write down measured AP (P388) for this compound. COc1cccc(/C=C2\CCCc3ccccc3C2=O)c1
11.2

Write down measured AP (P388) for this compound. O=C1CCCCC/C1=C\c1ccc(Cl)cc1
34.5

---

System: L1210
Test: Average potency against L1210 cells
Assay type: functional, Mus musculus
Reported AP values follow for various compounds
Please state the figure in µM; there is no need to write the unit.

Worked cases, answers included:
# Smiles text, AP [µM]
measured = [
    ("O=C1CCCCC/C1=C\\c1cccc(Cl)c1", 227),
    ("Cc1ccc(/C=C2\\CCCCCC2=O)cc1", 227),
    ("O=C1/C(=C/c2ccc(Br)cc2)CCc2ccccc21", 135),
    ("O=C1CCCCC/C1=C\\c1ccc([N+](=O)[O-])cc1", 227),
    ("O=C1/C(=C/c2ccc(Cl)cc2)CCc2ccccc21", 135),
    ("O=C1/C(=C/c2ccc(Br)cc2)Cc2ccccc21", 127),
    ("O=C1/C(=C/c2cccc(F)c2)Cc2ccccc21", 127),
    ("Cc1ccc(/C=C2\\CCCc3ccccc3C2=O)cc1", 85.2),
]

Please report the measured AP for O=C1/C(=C/c2cccc(Br)c2)Cc2ccccc21
127

Please report the measured AP for O=C1/C(=C/c2ccc([N+](=O)[O-])cc2)Cc2ccccc21
127

Please report the measured AP for O=C1CCCCC/C1=C\c1cccc(Br)c1
227

Please report the measured AP for O=C1/C(=C/c2cccc(F)c2)CCCc2ccccc21
85.2

Please report the measured AP for O=C1/C(=C/c2cccc(Br)c2)CCc2ccccc21
135

---

System: L1210
Assay: Inhibitory activity was tested against L1210 cells
Format: functional, cell-based
Conditions: Mus musculus
Measurement kind: IC50 (µM)

Worked cases, answers included:
# Smiles text, U, IC50
data = [
    ("O=C1CCCCC/C1=C\\c1ccc(Br)cc1", "µM", 68.4),
    ("O=C1/C(=C/c2cccc(Br)c2)CCc2ccccc21", "µM", 158),
    ("O=C1/C(=C/c2cccc([N+](=O)[O-])c2)CCCc2ccccc21", "µM", 48.8),
    ("O=C1/C(=C/c2cccc(F)c2)CCc2ccccc21", "µM", 61.2),
]

[P] Cc1cccc(/C=C2\CCCCCC2=O)c1
[Q] Cc1cccc(/C=C2\Cc3ccccc3C2=O)c1
[R] O=C1/C(=C/c2cccc(F)c2)Cc2ccccc21
[S] Cc1cccc(/C=C2\CCc3ccccc3C2=O)c1
Ascending sort, IC50. // format: requested-order list of labels
Q, S, R, P
(Q: 50.4 µM, S: 73.2 µM, R: 181 µM, P: 263 µM)

[A] O=C1/C(=C/c2ccc(Cl)cc2)Cc2ccccc21
[B] Cc1ccc(/C=C2\CCc3ccccc3C2=O)cc1
Between the entries labeled A and B , whose measured IC50 is lower? The response must carry the label of the picked entry.
A
(A: 54.1 µM, B: 161 µM)

[a] O=C1/C(=C/c2cccc(Br)c2)CCCc2ccccc21
[b] COc1cccc(/C=C2\CCCCCC2=O)c1
Between the entries labeled a and b , whose measured IC50 is lower? The response must carry the label of the picked entry.
a

[1] CN(C)c1ccc(/C=C2\Cc3ccccc3C2=O)cc1
[2] COc1ccc(/C=C2\CCCc3ccccc3C2=O)cc1
[3] O=C1CCCCC/C1=C\c1cccc(Br)c1
[4] O=C1CCCCC/C1=C\c1cccc(Cl)c1
Order the 4 compounds from highest to lowest IC50. // format: requested-order list of labels
3, 4, 1, 2
(3: 246 µM, 4: 144 µM, 1: 61.7 µM, 2: 0.34 µM)

[1] O=C1/C(=C/c2ccc(F)cc2)CCCc2ccccc21
[2] O=C1/C(=C/c2cccc([N+](=O)[O-])c2)Cc2ccccc21
Between the entries labeled 1 and 2 , whose measured IC50 is lower? The response must carry the label of the picked entry.
1

[A] COc1ccc(/C=C2\CCc3ccccc3C2=O)cc1
[B] O=C1/C(=C/c2ccc(Cl)cc2)CCc2ccccc21
Determine, for A and B , which has the greater value of IC50. The response must carry the label of the picked entry.
B

[A] O=C1/C(=C/c2cccc(Br)c2)Cc2ccccc21
[B] O=C1/C(=C/c2ccc(Br)cc2)Cc2ccccc21
Between the entries labeled A and B , whose measured IC50 is lower? The response must carry the label of the picked entry.
A
(A: 43.3 µM, B: 64.8 µM)

[I] COc1cccc(/C=C2\CCc3ccccc3C2=O)c1
[II] O=C1/C(=C/c2ccccc2)CCCc2ccccc21
Between the entries labeled I and II , whose measured IC50 is lower? The response must carry the label of the picked entry.
I
(I: 60.7 µM, II: 106 µM)

Reference source: ChEMBL document CHEMBL1132632
